- Study System: Serine/threonine-protein kinase DCLK2 (Homo sapiens)
- Setup Conditions: at 10 µM
A collection of compounds and their measured residual activity
Give the value in % but do not write % after it.

Record excerpt, results attached:
O=C1Nc2ccc3ncsc3c2/C1=C/c1c[nH]cn1    17
C[S+]([O-])c1ccc(-c2nc(-c3ccc(F)cc3)c(-c3ccncc3)[nH]2)cc1 (stereo not given)    111
O=c1[nH]c2ccccc2n1C1CCN(Cc2ccc(-c3nc4cc5[nH]cnc5cc4nc3-c3ccccc3)cc2)CC1    98
COc1ccc2c(c[n+](C)c3c4cc5c(cc4ccc23)OCO5)c1OC    90

Summary: CCn1cnc2c(Nc3cccc(Cl)c3)nc(N[C@@H]3CCCC[C@@H]3N)nc21 , Serine/threonine-protein kinase DCLK2 (Homo sapiens), residual activity = 67

###

- Study System: Mitogen-activated protein kinase 3 (Homo sapiens)
- Setup Conditions: at 10 µM
- Description: Millipore: Percentage of residual kinase activity of MAPK3 at 10uM relative to control. Control inhibitor: ERK Inhibitor II at 30.0uM. Buffer: 25 mM Tris pH 7.5, 0.02 mM EGTA
A collection of compounds and their measured residual activity
Give the value in % but do not write % after it.

Record excerpt, results attached:
O=C1Nc2ccc3ncsc3c2/C1=C/c1c[nH]cn1    0
O=C1NC(=O)c2c1c1c3ccccc3n3c1c1c2c2ccccc2n1C1CCC3O1    83

Reported residual activity for O=[N+]([O-])/C=C/c1ccc2c(c1)OCO2 was 86

###

A collection of molecules and their measured residual activity
- Study System: Fibroblast growth factor receptor 3 (Homo sapiens) (UniProt P22607)
- Sequence (P22607 23-806 limits assumed): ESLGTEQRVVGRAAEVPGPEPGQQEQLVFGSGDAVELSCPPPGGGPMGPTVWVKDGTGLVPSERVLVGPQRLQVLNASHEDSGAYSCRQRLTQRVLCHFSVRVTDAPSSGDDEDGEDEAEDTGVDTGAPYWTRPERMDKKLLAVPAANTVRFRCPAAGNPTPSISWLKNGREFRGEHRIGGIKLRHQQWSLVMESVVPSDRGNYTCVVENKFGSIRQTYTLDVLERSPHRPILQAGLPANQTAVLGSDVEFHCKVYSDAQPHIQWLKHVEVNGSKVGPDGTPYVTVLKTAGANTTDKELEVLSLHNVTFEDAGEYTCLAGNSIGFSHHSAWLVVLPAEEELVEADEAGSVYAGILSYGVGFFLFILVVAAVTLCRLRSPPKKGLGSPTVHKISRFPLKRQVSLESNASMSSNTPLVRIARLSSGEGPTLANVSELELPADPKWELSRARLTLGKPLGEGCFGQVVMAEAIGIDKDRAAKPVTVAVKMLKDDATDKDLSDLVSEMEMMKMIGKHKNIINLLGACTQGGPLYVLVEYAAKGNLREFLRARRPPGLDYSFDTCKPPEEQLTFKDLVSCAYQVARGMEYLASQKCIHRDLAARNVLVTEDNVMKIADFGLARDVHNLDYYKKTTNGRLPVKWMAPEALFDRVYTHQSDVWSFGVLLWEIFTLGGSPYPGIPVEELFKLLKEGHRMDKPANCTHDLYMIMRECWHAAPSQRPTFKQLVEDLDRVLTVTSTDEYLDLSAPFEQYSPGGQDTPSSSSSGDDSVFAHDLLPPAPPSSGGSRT
- Setup Conditions: at 1 µM
Give the value in % but do not write % after it.

Record excerpt, results attached:
O=C1Nc2ccc3ncsc3c2/C1=C/c1c[nH]cn1    19
COC(=O)[C@@]1(O)C[C@H]2O[C@]1(C)n1c3ccccc3c3c4c(c5c6ccccc6n2c5c31)C(=O)NC4    17
O=C1NC(=O)c2c1c1c3ccccc3n3c1c1c2c2ccccc2n1C1CCC3O1    82
O=c1[nH]c2ccccc2n1C1CCN(Cc2ccc(-c3nc4cc5[nH]cnc5cc4nc3-c3ccccc3)cc2)CC1    115
COc1cc2ncnc(Nc3ccc(OCc4ccccc4)cc3)c2cc1OC    97
N/C(=N\[N+](=O)[O-])N/N=C\c1ccc(-c2cccc([N+](=O)[O-])c2)o1    95

Reported residual activity for C[S+]([O-])c1ccc(-c2nc(-c3ccc(F)cc3)c(-c3ccncc3)[nH]2)cc1 (stereo unspecified) was 115

Reported residual activity for O=[N+]([O-])/C=C/c1ccc2c(c1)OCO2 was 104

Reported residual activity for CC(C)(C)c1cc(C=C(C#N)C#N)cc(Br)c1O was 126

Reported residual activity for COc1ccc2c(c1)/C(=C/c1cnc[nH]1)C(=O)N2 was 61

Reported residual activity for O=C1c2ccccc2-c2nc3nnnn3nc21 was 125

###

- Study System: Tyrosine-protein kinase FRK (Homo sapiens)
- Setup Conditions: at 10 µM
A collection of molecules and their measured residual activity
Give the value in % but do not write % after it.

Record excerpt, results attached:
C[S+]([O-])c1ccc(-c2nc(-c3ccc(F)cc3)c(-c3ccncc3)[nH]2)cc1 (centres undefined)    17
O=c1[nH]c2ccccc2n1C1CCN(Cc2ccc(-c3nc4cc5[nH]cnc5cc4nc3-c3ccccc3)cc2)CC1    107
COc1cc2ncnc(Nc3ccc(OCc4ccccc4)cc3)c2cc1OC    123
COc1cc(OC)c(/C=C2\C(=O)Nc3ccccc32)c(OC)c1    99

Summary: c1cc(-c2cnn3cc(-c4ccc(OCCN5CCCCC5)cc4)cnc23)ccn1 , Tyrosine-protein kinase FRK (Homo sapiens), residual activity = 7

Summary: O=C1NC(=O)c2c1c1c3ccccc3n3c1c1c2c2ccccc2n1C1CCC3O1 , Tyrosine-protein kinase FRK (Homo sapiens), residual activity = 66

Summary: O=C1Nc2ccc3ncsc3c2/C1=C/c1c[nH]cn1 , Tyrosine-protein kinase FRK (Homo sapiens), residual activity = 33

Summary: COC(=O)[C@@]1(O)C[C@H]2O[C@]1(C)n1c3ccccc3c3c4c(c5c6ccccc6n2c5c31)C(=O)NC4 , Tyrosine-protein kinase FRK (Homo sapiens), residual activity = 6

Summary: O=[N+]([O-])/C=C/c1ccc2c(c1)OCO2 , Tyrosine-protein kinase FRK (Homo sapiens), residual activity = 105

###

A collection of molecules and their measured residual activity
- Study System: Serine/threonine-protein kinase PLK3 (Homo sapiens) (UniProt Q9H4B4)
- Sequence (Q9H4B4 whole entry, looked up): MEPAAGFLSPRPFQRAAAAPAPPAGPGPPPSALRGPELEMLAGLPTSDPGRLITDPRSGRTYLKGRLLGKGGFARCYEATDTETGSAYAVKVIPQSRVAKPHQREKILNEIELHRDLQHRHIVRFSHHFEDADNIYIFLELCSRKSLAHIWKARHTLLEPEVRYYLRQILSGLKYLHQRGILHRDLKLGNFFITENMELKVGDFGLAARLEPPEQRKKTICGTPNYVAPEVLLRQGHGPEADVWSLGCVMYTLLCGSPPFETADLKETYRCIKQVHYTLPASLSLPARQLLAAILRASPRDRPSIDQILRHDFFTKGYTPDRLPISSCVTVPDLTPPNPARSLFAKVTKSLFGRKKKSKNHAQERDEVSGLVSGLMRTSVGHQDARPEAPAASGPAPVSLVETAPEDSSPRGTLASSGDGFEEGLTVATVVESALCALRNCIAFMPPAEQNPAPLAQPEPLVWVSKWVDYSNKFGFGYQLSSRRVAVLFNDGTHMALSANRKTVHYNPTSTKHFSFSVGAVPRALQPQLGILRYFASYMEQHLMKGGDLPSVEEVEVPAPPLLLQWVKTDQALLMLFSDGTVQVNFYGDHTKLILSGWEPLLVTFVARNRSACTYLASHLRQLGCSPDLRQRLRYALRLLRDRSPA
- Setup Conditions: at 10 µM
- Description: Millipore: Percentage of residual kinase activity of PLK3 at 10uM relative to control. Control inhibitor: Wortmannin at 100.0uM. Buffer: 8 mM MOPS pH 7.0, 0.2 mM EDTA
Give the value in % but do not write % after it.

O=c1[nH]c2ccccc2n1C1CCN(Cc2ccc(-c3nc4cc5[nH]cnc5cc4nc3-c3ccccc3)cc2)CC1    94
COc1cc(OC)c(/C=C2\C(=O)Nc3ccccc32)c(OC)c1    91
O=C1NC(=O)c2c1c1c3ccccc3n3c1c1c2c2ccccc2n1C1CCC3O1    94
CCn1cnc2c(Nc3cccc(Cl)c3)nc(N[C@@H]3CCCC[C@@H]3N)nc21    89
O=C1c2ccccc2-c2nc3nnnn3nc21    12
CC(C)[C@H](CO)Nc1nc(Nc2cccc(Cl)c2)c2ncn(C(C)C)c2n1    87
CN[C@@H]1C[C@H]2O[C@@](C)([C@@H]1OC)n1c3ccccc3c3c4c(c5c6ccccc6n2c5c31)C(=O)NC4    50
CC(C)(C)c1cc(C=C(C#N)C#N)cc(Br)c1O    110
CCc1nc(-c2ccc(OC)cc2)[nH]c1-c1ccncc1    102

Alright, here's another molecule for you.
Reported residual activity for COC(=O)[C@@]1(O)C[C@H]2O[C@]1(C)n1c3ccccc3c3c4c(c5c6ccccc6n2c5c31)C(=O)NC4 was 54

###

- Study System: Serine/threonine-protein kinase pim-2 (Homo sapiens) (UniProt Q9P1W9)
- Sequence (Q9P1W9 whole entry, looked up): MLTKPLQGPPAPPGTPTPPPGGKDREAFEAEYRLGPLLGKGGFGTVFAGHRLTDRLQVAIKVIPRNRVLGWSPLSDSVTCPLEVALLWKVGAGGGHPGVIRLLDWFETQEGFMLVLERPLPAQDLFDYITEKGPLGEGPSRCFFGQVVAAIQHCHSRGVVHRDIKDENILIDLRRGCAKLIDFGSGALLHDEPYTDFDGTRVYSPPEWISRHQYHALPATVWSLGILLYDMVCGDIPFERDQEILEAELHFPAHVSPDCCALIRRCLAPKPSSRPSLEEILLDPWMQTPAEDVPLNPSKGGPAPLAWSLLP
- Setup Conditions: at 1 µM
Observation Type: residual activity (%)
Give the value in % but do not write % after it.

COc1ccc2c(c1)/C(=C/c1cnc[nH]1)C(=O)N2    69
O=C1NC(=O)c2c1c1c3ccccc3n3c1c1c2c2ccccc2n1C1CCC3O1    6
COc1cc2ncnc(Nc3ccc(OCc4ccccc4)cc3)c2cc1OC    110
c1cc(-c2cnn3cc(-c4ccc(OCCN5CCCCC5)cc4)cnc23)ccn1    117
CCc1nc(-c2ccc(OC)cc2)[nH]c1-c1ccncc1    126

Reported residual activity for C[S+]([O-])c1ccc(-c2nc(-c3ccc(F)cc3)c(-c3ccncc3)[nH]2)cc1 (stereo not given) was 125

Reported residual activity for COc1cc(OC)c(/C=C2\C(=O)Nc3ccccc32)c(OC)c1 was 137

Reported residual activity for COC(=O)[C@@]1(O)C[C@H]2O[C@]1(C)n1c3ccccc3c3c4c(c5c6ccccc6n2c5c31)C(=O)NC4 was 2

Reported residual activity for O=C1c2ccccc2-c2nc3nnnn3nc21 was 104

Reported residual activity for COc1ccc2c(c[n+](C)c3c4cc5c(cc4ccc23)OCO5)c1OC was 86

###

- Study System: Ephrin type-B receptor 1 (Homo sapiens) (UniProt P54762)
- Sequence (whole entry): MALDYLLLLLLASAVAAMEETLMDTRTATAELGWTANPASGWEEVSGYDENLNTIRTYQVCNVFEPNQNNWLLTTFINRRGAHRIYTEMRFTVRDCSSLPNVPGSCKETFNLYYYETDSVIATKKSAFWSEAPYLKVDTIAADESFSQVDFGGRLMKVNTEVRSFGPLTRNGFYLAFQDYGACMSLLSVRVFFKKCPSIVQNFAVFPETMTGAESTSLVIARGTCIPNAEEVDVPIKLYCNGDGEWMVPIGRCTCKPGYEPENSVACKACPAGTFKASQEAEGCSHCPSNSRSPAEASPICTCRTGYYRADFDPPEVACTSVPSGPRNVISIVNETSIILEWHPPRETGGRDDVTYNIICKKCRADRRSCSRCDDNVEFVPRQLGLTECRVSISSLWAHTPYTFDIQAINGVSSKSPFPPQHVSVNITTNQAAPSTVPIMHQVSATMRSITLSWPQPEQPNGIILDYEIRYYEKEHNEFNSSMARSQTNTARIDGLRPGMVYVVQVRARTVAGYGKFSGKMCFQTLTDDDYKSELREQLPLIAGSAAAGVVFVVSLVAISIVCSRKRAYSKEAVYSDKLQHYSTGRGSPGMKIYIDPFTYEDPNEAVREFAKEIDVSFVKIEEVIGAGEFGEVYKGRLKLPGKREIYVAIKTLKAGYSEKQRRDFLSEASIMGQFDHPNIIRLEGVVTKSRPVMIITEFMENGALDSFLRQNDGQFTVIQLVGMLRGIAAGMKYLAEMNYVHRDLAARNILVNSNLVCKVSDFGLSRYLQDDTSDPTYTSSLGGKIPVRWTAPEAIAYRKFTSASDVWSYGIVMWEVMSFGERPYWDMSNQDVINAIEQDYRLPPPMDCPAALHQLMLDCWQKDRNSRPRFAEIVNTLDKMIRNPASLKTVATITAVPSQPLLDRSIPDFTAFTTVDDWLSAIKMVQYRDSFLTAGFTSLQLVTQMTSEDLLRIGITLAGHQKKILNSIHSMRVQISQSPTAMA
- Setup Conditions: at 10 µM
T means recorded residual activity is 60% or above; F means it is below 60%.

c1cc(-c2cnn3cc(-c4ccc(OCCN5CCCCC5)cc4)cnc23)ccn1    F
COc1cc(OC)c(/C=C2\C(=O)Nc3ccccc32)c(OC)c1    T

Task: State whether the measured residual activity reaches 60%, counting equality as reaching it, for C[S+]([O-])c1ccc(-c2nc(-c3ccc(F)cc3)c(-c3ccncc3)[nH]2)cc1 (stereo not drawn)
Output: F

Task: State whether the measured residual activity reaches 60%, counting equality as reaching it, for CC(C)(C)c1cc(C=C(C#N)C#N)cc(Br)c1O
Output: T

Task: State whether the measured residual activity reaches 60%, counting equality as reaching it, for COc1cc2ncnc(Nc3ccc(OCc4ccccc4)cc3)c2cc1OC
Output: T

Task: State whether the measured residual activity reaches 60%, counting equality as reaching it, for O=[N+]([O-])/C=C/c1ccc2c(c1)OCO2
Output: T

Task: State whether the measured residual activity reaches 60%, counting equality as reaching it, for CC(C)[C@H](CO)Nc1nc(Nc2cccc(Cl)c2)c2ncn(C(C)C)c2n1
Output: F

Source: ChEMBL document CHEMBL2218924
